Kd values for the molecules below.
MEASURED_ON: GDP-bound KRAS wild-type protein (Homo sapiens, UniProt P01116)
Sequence (P01116 whole entry): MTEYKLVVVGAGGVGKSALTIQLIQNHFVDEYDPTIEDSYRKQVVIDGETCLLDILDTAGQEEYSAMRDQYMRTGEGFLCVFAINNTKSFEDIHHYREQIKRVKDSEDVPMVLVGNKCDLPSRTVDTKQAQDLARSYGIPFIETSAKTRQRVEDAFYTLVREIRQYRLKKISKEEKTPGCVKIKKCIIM
ASSAY_NAME: Binding to KRAS by surface plasmon resonance (SPR), Single Cycle Kinetics
CONDITION_LABEL: SPR Single Cycle Kinetics, GDP-bound KRAS wild-type protein, 1:1 binding model; read-out: KRAS KD
*1 amine or outer side, *2 acyl side, *3 side chain or, on linkers, in order; H or OH if unused. Where a SMILES comes first, the peptide text is derived from it. Bridges are numbered along the chain shown (N, C = ends). [ ]: non-standard residue; d: D form. The star is where a group is joined. hPhe(3-Cl-4-CF3) = N[C@@H](CCc1ccc(C(F)(F)F)c(Cl)c1)C(=O)O; X36 = Cc1ccc(C[C@@H](C(=O)[*:2])N(CCC(F)(F)F)[*:1])cc1; NPrPhe(4-CF3) = CCCN[C@@H](Cc1ccc(C(F)(F)F)cc1)C(=O)O; NMeGly(cPent) = CN[C@H](C(=O)O)C1CCCC1; NMeD = CN[C@@H](CC(=O)O)C(=O)O; NMeL = CN[C@@H](CC(C)C)C(=O)O; Morpholide = C1CN(*)CCO1; NMeA = CN[C@@H](C)C(=O)O; dNMeA = CN[C@H](C)C(=O)O; Ac5c = NC1(C(=O)O)CCCC1; Aze = O=C(O)[C@@H]1CCN1; Sar = CNCC(=O)O

MOLECULE	MEASURED_ON	Kd, nM
CCC[C@H]1C(=O)N[C@@H]([C@@H](C)CC)C(=O)N(C)CC(=O)N(C)[C@H]2C/C=C\CCN(C2=O)[C@@H](Cc2ccc(C(F)(F)F)cc2)C(=O)N(C)CC(=O)N[C@@H](CCc2ccc(Cl)c(Cl)c2)C(=O)N2CCOC[C@H]2C(=O)NC2(CC(C)(C)C2)C(=O)N(C)[C@@H](C(CC)CC)C(=O)N(C)[C@H](C(=O)N(C)C)CC(=O)N1C	GDP-bound KRAS wild-type protein (Homo sapiens, UniProt P01116)	4
CCCN1C(=O)CN(C)C(=O)CN(C)C(=O)[C@H]([C@@H](C)CC)NC(=O)[C@H](CC(C)C)N(C)C(=O)C[C@@H](C(=O)N2CCOCC2)N(C)C(=O)[C@H](C2CCCC2)N(C)C(=O)C2(CCCC2)NC(=O)[C@@H]2CCCN2C(=O)[C@H](CCc2ccc(C(F)(F)F)c(Cl)c2)NC(=O)[C@@H](C)N(C)C(=O)[C@@H]1Cc1ccc(C(F)(F)F)cc1 [PP0148] ([NMeL]I[Sar][Sar][NPrPhe(4-CF3)][dNMeA][hPhe(3-Cl-4-CF3)]P[Ac5c][NMeGly(cPent)][NMeD]-Morpholide; lactam N-11)	GDP-bound KRAS wild-type protein (Homo sapiens, UniProt P01116)	3.4
CC[C@H](C)[C@@H]1NC(=O)[C@H](CC(C)C)N(C)C(=O)C[C@@H](C(=O)N2CCOCC2)N(C)C(=O)[C@H](C2CCCC2)N(C)C(=O)C2(CCCC2)NC(=O)[C@@H]2CCCN2C(=O)[C@H](CCc2ccc(C(F)(F)F)c(Cl)c2)NC(=O)CN(C)C(=O)[C@H](Cc2ccc(C)cc2)N(CCC(F)(F)F)C(=O)[C@@H]2CCN2C(=O)[C@H](C)N(C)C1=O [PP0091] ([NMeL]I[NMeA][Aze][X36][Sar][hPhe(3-Cl-4-CF3)]P[Ac5c][NMeGly(cPent)][NMeD]-Morpholide; lactam N-11)	GDP-bound KRAS wild-type protein (Homo sapiens, UniProt P01116)	0.23
